target: Delta-type opioid receptor (Homo sapiens); assay: Displacement of [3H]DPN from recombinant human delta opioid receptor expressed in CHOK1 cell membranes
Sequence (P41143 whole entry): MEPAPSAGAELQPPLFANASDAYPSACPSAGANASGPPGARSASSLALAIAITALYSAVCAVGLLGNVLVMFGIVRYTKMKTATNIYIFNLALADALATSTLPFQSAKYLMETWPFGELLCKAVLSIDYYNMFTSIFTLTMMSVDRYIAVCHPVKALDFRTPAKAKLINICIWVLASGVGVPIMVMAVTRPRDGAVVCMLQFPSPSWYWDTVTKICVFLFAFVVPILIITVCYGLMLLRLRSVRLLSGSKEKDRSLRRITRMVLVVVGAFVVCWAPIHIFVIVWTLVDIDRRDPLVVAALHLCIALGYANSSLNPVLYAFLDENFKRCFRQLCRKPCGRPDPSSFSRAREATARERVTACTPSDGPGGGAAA
# class assignment by measured Ki: bucket A = under 4 nM, bucket B = from 4 nM up to 200 nM, bucket C = 200 nM and over

Sort into band: Oc1cccc(C2C[C@H]3CC[C@H](C2)N3CCCOc2ccccc2)c1 (relative stereo; 19b) bucket B

// same read-out, input: CCCCCCCN1[C@@H]2CC[C@@H]1CC(c1cccc(C(N)=O)c1)C2 (relative stereo) bucket A

Also Oc1cccc(C2C[C@H]3CC[C@H](C2)N3CCCOc2ccccc2)c1 (relative stereo; 19a) , if possible. bucket A

Queued: O=C(CN1[C@@H]2CC[C@@H]1CC(c1cccc(O)c1)C2)C1CCCCC1 (relative stereo; 22b) bucket B

Can you handle Oc1cccc(C2C[C@H]3CC[C@H](C2)N3CC(O)Cc2ccccc2)c1 (relative stereo; 23b) next? bucket C

Request: NC(=O)c1cccc(C2C[C@H]3CC[C@H](C2)N3CC(O)Cc2ccccc2)c1 (stereo in doubt; 31b) bucket C

Would you kindly repeat that for C[C@H]1CN(C[C@H](Cc2ccccc2)C(=O)NCC(=O)O)CC[C@@]1(C)c1cccc(O)c1 [ALVIMOPAN] ? bucket B

Try NC(=O)c1cccc(C2C[C@H]3CC[C@H](C2)N3Cc2c(F)cccc2F)c1 (relative stereo; 26a) next. bucket C

Input NC(=O)c1cccc(C2C[C@H]3CC[C@H](C2)N3Cc2c(F)cccc2F)c1 (relative stereo; 26b) bucket C

Repeat for the following compound: CC(C)(C)c1ccc(CN2[C@@H]3CC[C@@H]2CC(c2cccc(O)c2)C3)cc1 (relative stereo; 20a) bucket A

What do you have for NC(=O)c1cccc(C2C[C@H]3CC[C@H](C2)N3CCCCN2C(=O)c3ccccc3C2=O)c1 (relative stereo; 29a) ? bucket B

Oc1cccc(C2CC3CCC(C2)N3CCCc2ccccc2)c1 (mixture of isomers) , same question. bucket A

One more compound: O=C(CN1[C@@H]2CC[C@@H]1CC(c1cccc(O)c1)C2)C1CCCCC1 (relative stereo; 22a) bucket A

Field entry: CCCCCCCN1[C@@H]2CC[C@@H]1CC(c1cccc(O)c1)C2 (relative stereo; 17b) bucket C
